test system: Saccharomyces cerevisiae; assay: protein stability index of tFT-peptide fusion (C-terminal peptide) (PSI (0-1 scale)); higher = more stable (slower turnover); conditions: genetic background: wild type; temperature: 30 C
measured-parameter: protein stability index
// return just the number, without any unit appended

Ask | Missing value: protein stability index, Saccharomyces cerevisiae, entry LPLLPLPSLSPP . Fill in?
Reply | 0.713

Ask | Entry to check: PSPGPPATRPAL
Reply | 0.719

Ask | Item: ASLHAPPLPPLC
Reply | 0.689

Ask | // same read-out, input: VSSVSLRVRVLF
Reply | 0.564

Ask | Consider next the sequence LFVGCRDPLCGV in the same way.
Reply | 0.723

Ask | Now give it for PPPLPPPTPLPT too.
Reply | 0.681

Ask | What do you have for VCVAVCFVMCGG ?
Reply | 0.372

Ask | Lookup ALWWRVGCGVGL
Reply | 0.657

Ask | What would you report for ERNERKYKIKIT ?
Reply | 0.374

Ask | Do the same for PDTVRALMRGYK please
Reply | 0.721

Ask | What do we get for HGVSERPSISEY ?
Reply | 0.68

Ask | Please do the same for IYTLIINKSKAQ as well.
Reply | 0.429

Ask | Again, but for PYIKDRYSPANN
Reply | 0.781

Ask | Another sequence to look at: PLCPPPLPTPPP
Reply | 0.585

Ask | Next up: GILRGSKKVDPP
Reply | 0.622

Ask | Could you do the same for SAGPNCVWSSYN , please?
Reply | 0.732

Ask | What would you report for RPFLVGRISFSS ?
Reply | 0.693

Ask | Can you check VGLGEGGGVGEG next?
Reply | 0.678

Ask | Okay, and SVLFDIGFSCRF ?
Reply | 0.808

Ask | // next record FLLLSPARLVLL
Reply | 0.553

Ask | What about PPCAPFSPPALP ?
Reply | 0.659

Ask | Can you check KLRSTLVSAQGV next?
Reply | 0.652

Ask | Please do the same for LDAFYVNVGLFG as well.
Reply | 0.732

Ask | Now consider LKTKKKKTNTQK .
Reply | 0.495

Ask | Please give the result for RRSAWCAALPGR too.
Reply | 0.704

Ask | Same question, PPVPPPSPPRLL this time
Reply | 0.673

Ask | Try this sequence next: HMLRLIDFQSIV
Reply | 0.685

Ask | Thanks! And PQTPPSTLLLPP ?
Reply | 0.61

Ask | Note, next up: CGVGEGGLLGWL
Reply | 0.745

Ask | Do the same for AYICLSGLGRCI please
Reply | 0.672

* * *

Would you mind telling me the reported protein stability index of each entry?
tested on: Saccharomyces cerevisiae; test: protein stability index of tFT-peptide fusion (C-terminal peptide) (PSI (0-1 scale)); higher = more stable (slower turnover); conditions: genetic background: wild type; temperature: 30 C;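 note: PSI is a weighted mean of sequencing reads over stability bins, variants kept only with over 10 reads, mCherry proximal and sfGFP distal, peptide attached via GGGS linker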
Just the number, please, no unit after it.

Ask | Recorded protein stability index for PLRSLRFYTTLS , please?
Reply | 0.649

Ask | // same read-out, input: RFPFSFSGFFLL
Reply | 0.553

Ask | Likewise for VSVGVPGWYGMI ?
Reply | 0.634

Ask | Cool, now EKIRSNIIKLEE
Reply | 0.64

Ask | Let us now turn to NEGGGGRGETVE
Reply | 0.613

Ask | And then EIRGGDMGEWRE , what is it?
Reply | 0.715

Ask | What do we get for DPPDPASIHLSF ?
Reply | 0.752

Ask | Can you handle YHDKLRAIEKFF next?
Reply | 0.331

Ask | Now the sequence PHTHHLPPPNCP
Reply | 0.679

Ask | Can you handle FFWTTPRFPFPS next?
Reply | 0.725

Ask | And then PFAHPPRLPLFP , what is it?
Reply | 0.742

Ask | Then EKNKKKIERSTM ?
Reply | 0.684

Ask | Then what about the sequence RRDRFSLRGFTE ?
Reply | 0.701

Ask | Try RPLNLPPPPAPF next.
Reply | 0.659

Ask | Same thing, different sequence: CHPIPLARLAPT
Reply | 0.72

Ask | Moving on to the next sequence: KKIKKRQSKENK
Reply | 0.704

Ask | Query AGGLCEGGWRGR next
Reply | 0.689

Ask | Input ARVAPPWRSTRA
Reply | 0.683

Ask | Another sequence to check: LYRRLLCYPKTR
Reply | 0.675

Ask | Again, but for FGLWGFGRPRGW
Reply | 0.721

Ask | // query: NLYLEKLLHSEP
Reply | 0.715

Ask | Now this one: SPSRHPSPPKPP
Reply | 0.607

Ask | Likewise for LDGLLVCSNWPA ?
Reply | 0.805

Ask | Next record, please: APVHPPPGFLLP
Reply | 0.695

Ask | Note, next up: RRRLRSGYCCLV
Reply | 0.686

Ask | # iterate: FCVVVAIVPLWG
Reply | 0.512

Ask | Note, next up: KFKAYNIKKWKE
Reply | 0.702

Ask | Next up: LPPTPSSRGPHS
Reply | 0.669

Ask | Likewise for GWRGRRGERARG ?
Reply | 0.749

Ask | Now try RRGDMSEGEREE .
Reply | 0.672

Ask | And SCSVAIFLLSSP ?
Reply | 0.685

Ask | Then what about the sequence CLEHLVYCRLAS ?
Reply | 0.131

Ask | Another sequence to look at: SPLPRPHRGPPP
Reply | 0.58

Ask | Do the same for LSTCRYMLRLAY please
Reply | 0.523

Ask | Also, LVLSGFSLFPVP please.
Reply | 0.705

Ask | Cool, now VDRAPFHLGRQG
Reply | 0.712

Ask | Would you kindly repeat that for FGTSLLPLPPPD ?
Reply | 0.601

Ask | How about RGGGQVLGARVG ?
Reply | 0.634

Ask | Would you kindly repeat that for PVSPLPGPPPPP ?
Reply | 0.768

Ask | Okay, and SPLPADSHPLPP ?
Reply | 0.667

Ask | Also, ACGSRGGQTERP please.
Reply | 0.714

Ask | Now consider SVATFDLHAGEW .
Reply | 0.75

Ask | Ok, now DTFVFSWGVGWG
Reply | 0.76

Ask | Another sequence to look at: LRFWCFGDVCPV
Reply | 0.754

Ask | Next sequence up: LRETDGSGQYVR
Reply | 0.686

Ask | Cool, now PARSAGPLNARS
Reply | 0.758

Ask | Consider next the sequence GFALRESWFIFV in the same way.
Reply | 0.644

Ask | Lookup PFCVALVDVGFW
Reply | 0.564

Ask | What do you have for RFPPFSFAPCLI ?
Reply | 0.712

Ask | Same thing, different sequence: ALLPVLPSRPAP
Reply | 0.743

Ask | Okay, and PPFFLLLPPTIF ?
Reply | 0.67

Ask | Queued: EERELGVVWGEV
Reply | 0.702

Ask | Same read-out for LPPFLLPPFFSI ?
Reply | 0.718

Ask | # repeat for QKSGELVKNVRI
Reply | 0.673

Ask | And then GDITEVDISKHI , what is it?
Reply | 0.75

Ask | Same lookup for TTIVGRIMRVMR , please.
Reply | 0.706

Ask | Now give it for ASGGLVGAWVCV too.
Reply | 0.675

Ask | Next up: PPPPSPFPLPSP
Reply | 0.685

Ask | // same read-out, input: PPPAPPPSPPSN
Reply | 0.675

Ask | Here is the next sequence: RLFSFPPPPTPP
Reply | 0.705

Ask | Repeat for the following sequence: PISCVLGFAFPS
Reply | 0.708

Ask | Lookup AQRGSTAASAGG
Reply | 0.683

Ask | Ok, now PPSSPPLAPPFL
Reply | 0.709

Ask | Check PPPLACPSPPVT too.
Reply | 0.734

Ask | Check PPVISAPIPLAP too.
Reply | 0.688

Ask | Another: SRPLYVMICTRV
Reply | 0.386

Ask | Try KKKKKNKKKKKK next.
Reply | 0.705

Ask | # repeat for DILCRILLRPKG
Reply | 0.63

Ask | Please do the same for PPGNPPPRRLTS as well.
Reply | 0.695

Ask | Quick one: IKKLYIICQQMK
Reply | 0.666

Ask | Consider next the sequence FLRLFLQQVEFL in the same way.
Reply | 0.716

Ask | Cool, now AYEGVYAVVANV
Reply | 0.616

Ask | Now try GFKMSMGCEQSS .
Reply | 0.722

Ask | Another sequence to look at: PPRPPSPPASRA
Reply | 0.77

Ask | Moving on to DLATSVVYIVTV
Reply | 0.506

Ask | Please do the same for PRLVFSVSSLGL as well.
Reply | 0.7

Ask | For GCFLIANMCLLG then?
Reply | 0.665

Data provenance is the supplement of paper PMC10724198.
